System: Plasmopara viticola
Experimental Details: in vitro antifungal action of single ingredients on Plasmopara viticola
Type: cell-based
Experimental Parameters: Concentration 0.05%
Quick rule for you: in vitro activity against Plasmopara viticola, ingredient alone in water at 20% or higher means Y, lower means N.

Compound: O=S(=O)([O-])[O-].[Mg+2]
Class Name: N

Compound: O=S(=O)([O-])[O-].[Mn+2] [Mn 3.7%]
Class Name: Y

Compound: O=S(=O)([O-])[O-].[Zn+2]
Class Name: N

Compound: O=S(=O)([O-])[O-].[Mn+2] [Mn 7%]
Class Name: Y

Prompt line: Given the entry [Na+].[Na+].[O]=[Mo](=[O])([O-])[O-] [Mo 0.01%, sodium molybdate] , answer whether its in vitro activity against Plasmopara viticola, ingredient alone in water meets or surpasses 20%.
Response line: N

Prompt line: Given the entry [Cl-].[K+] , answer whether its in vitro activity against Plasmopara viticola, ingredient alone in water meets or surpasses 20%.
Response line: N

The measurements presented in this section are drawn from patent US20260076372A1.
